Reported IC50 values for a set of compounds
# SUBJECT OF TEST: UniProt:Q9UM73
# Sequence (Q9UM73 19-1620, species assumed): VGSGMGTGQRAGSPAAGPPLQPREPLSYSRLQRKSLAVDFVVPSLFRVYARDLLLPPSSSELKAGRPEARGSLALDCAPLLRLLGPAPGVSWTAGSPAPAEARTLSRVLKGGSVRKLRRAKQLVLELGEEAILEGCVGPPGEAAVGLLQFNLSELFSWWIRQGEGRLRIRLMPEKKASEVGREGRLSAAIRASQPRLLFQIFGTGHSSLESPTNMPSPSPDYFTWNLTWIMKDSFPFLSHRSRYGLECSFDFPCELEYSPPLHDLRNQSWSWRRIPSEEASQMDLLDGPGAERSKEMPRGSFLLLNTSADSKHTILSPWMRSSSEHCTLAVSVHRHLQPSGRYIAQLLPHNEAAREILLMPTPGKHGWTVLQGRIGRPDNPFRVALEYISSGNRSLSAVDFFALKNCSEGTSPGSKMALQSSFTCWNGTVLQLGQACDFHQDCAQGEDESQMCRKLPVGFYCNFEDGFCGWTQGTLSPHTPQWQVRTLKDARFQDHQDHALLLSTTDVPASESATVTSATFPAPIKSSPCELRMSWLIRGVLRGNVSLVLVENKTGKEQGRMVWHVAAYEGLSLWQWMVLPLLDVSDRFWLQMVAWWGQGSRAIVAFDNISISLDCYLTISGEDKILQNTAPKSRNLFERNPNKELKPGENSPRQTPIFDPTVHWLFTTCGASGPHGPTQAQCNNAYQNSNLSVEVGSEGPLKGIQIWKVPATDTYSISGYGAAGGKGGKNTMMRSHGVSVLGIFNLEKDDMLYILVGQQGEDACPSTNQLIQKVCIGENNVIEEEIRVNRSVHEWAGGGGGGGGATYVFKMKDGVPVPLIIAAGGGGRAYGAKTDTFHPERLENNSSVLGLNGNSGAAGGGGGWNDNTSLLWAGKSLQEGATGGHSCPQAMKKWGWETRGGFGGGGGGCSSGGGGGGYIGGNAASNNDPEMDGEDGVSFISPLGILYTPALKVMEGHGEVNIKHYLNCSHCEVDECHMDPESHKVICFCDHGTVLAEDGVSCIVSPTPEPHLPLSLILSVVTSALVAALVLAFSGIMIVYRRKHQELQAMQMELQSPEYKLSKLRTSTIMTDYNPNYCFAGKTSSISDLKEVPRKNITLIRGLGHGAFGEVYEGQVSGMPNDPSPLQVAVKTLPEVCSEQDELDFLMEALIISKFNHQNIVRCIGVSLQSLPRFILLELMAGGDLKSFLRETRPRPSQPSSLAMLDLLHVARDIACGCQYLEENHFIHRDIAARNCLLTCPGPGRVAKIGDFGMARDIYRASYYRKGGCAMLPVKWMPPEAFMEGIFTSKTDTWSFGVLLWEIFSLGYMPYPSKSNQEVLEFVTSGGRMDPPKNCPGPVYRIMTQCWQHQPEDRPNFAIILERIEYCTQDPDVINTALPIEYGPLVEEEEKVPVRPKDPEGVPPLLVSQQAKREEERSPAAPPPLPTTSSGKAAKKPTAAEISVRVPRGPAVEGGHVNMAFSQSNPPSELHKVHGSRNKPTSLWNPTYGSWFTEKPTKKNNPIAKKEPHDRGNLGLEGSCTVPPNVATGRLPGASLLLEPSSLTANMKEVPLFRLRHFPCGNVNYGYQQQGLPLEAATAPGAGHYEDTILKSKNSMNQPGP
# ASSAY COMMENT: ALK kinase IC50 test (HTRF)
# Format: biochemical
# MEASUREMENT SETUP: Table 4, configurations of MXY-193

Query: What IC50 value was documented for this compound, CC(Oc1cc(-c2cnn(C3CCOCC3)c2)cnc1N)c1cc(F)ccc1Cl (stereo not drawn) [MXY-193] ?
Response: > 10 µM

Query: Same thing, different compound: CC(Oc1cc(-c2cnn(C3CCOCC3)c2)cnc1N)c1cc(F)ccc1Cl (single isomer, unassigned) [Configuration 1]
Response: 6.5 µM

Query: Same thing, different compound: CC(Oc1cc(-c2cnn(C3CCOCC3)c2)cnc1N)c1cc(F)ccc1Cl (single isomer, unassigned) [Configuration 2]
Response: > 10 µM

Provenance of the data: patent US20210179598A1
